experiment: NCI Yeast Anticancer Drug Screen. Data for the rad50 strain (AID 155);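 also: 0% = growth of vehicle-only cultures of the same strain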; settings: S. cerevisiae rad50 strain growth inhibition; at 50.0 µM (retest, dose inferred, filed as 5.0); hits give high values
Compounds without any hit were thinned out: in the full panel of roughly 79,000, 15% have a hit.
growth inhibition overview
property name: growth inhibition (%)

compound	units	observed
Cc1c(O)c(Br)c(C)c(O)c1Br (tested in a mixture with another compound)	%	85
O=Cc1ccc(-c2nccc3c2[nH]c2ccccc23)o1	%	35
Cc1cc(O)ccc1SC#N	%	53
CC(C)(C)C(=O)CC(=O)C(F)(F)C(F)(F)C(F)(F)F.CC(C)(C)C(=O)CC(=O)C(F)(F)C(F)(F)C(F)(F)F.CC(C)(C)C(=O)CC(=O)C(F)(F)C(F)(F)C(F)(F)F.[Er]	%	28
O=c1oc2c(-c3ccccc3)cccc2c(O)c1-c1ccccc1	%	58
C=CC1(C)CCC2C(=CCC3C(C)(C(=O)O)CCCC23C)C1 (configuration not stated) (tested in a mixture with another compound)	%	61
Cc1ccc(NC(=O)CCC(=O)CC(=O)C(C)(C)C)cc1C	%	7
Cc1ccsc1/C=N/Nc1cc(C)c2cccc(C)c2n1	%	47
Oc1cc(O)c2c(c1)OC(c1ccc(O)c(O)c1)C(OC1(c3cc(O)c(O)c(O)c3)Oc3cc(O)cc(O)c3C(O)C1O)C2 (configuration not stated)	%	17
Nc1ccc(O)c2ccccc12	%	80
CCCC/C=C(/CCCCOCOCCOC)[Si](C)(C)C	%	-1
CCCC(Sc1ccccc1)c1ccccc1NC(C)=O (configuration not stated)	%	31
COC(=O)c1ccccc1NC(=S)NN(C)C	%	20
Cc1ccc(NC(=S)SCc2ccco2)cc1Cl	%	99
O=[N+]([O-])c1ccc(/C=c2\sc3scc(-c4ccc([N+](=O)[O-])cc4)[n+]3\c2=C/c2ccc([N+](=O)[O-])cc2)cc1	%	99
Cc1noc(NS(=O)(=O)c2ccc(NCc3c4ccccc4nc4cc(Cl)ccc34)cc2)c1C	%	-13
CC(=O)O[C@H]1[C@@H]2CC(C)(C)CC2=C(C=O)C2(C=O)CC12C (some centres not stated)	%	99
O=C(C(=S)c1ccccc1)N(Cc1ccccc1)Cc1ccccc1	%	44
CC1CC(C)CC(C(O)(C(=O)O)C2CC(C)CC(C)C2)C1 (configuration not stated)	%	99
CCOC(=O)C1=C(c2ccccc2)SC(c2ccccc2)N(C(C)C)C1=O (configuration not stated)	%	67
O=C(Nc1ccc(F)c(Cl)c1)Oc1ccc(Br)cc1Br	%	52
c1ccc(B2OC(c3ccccc3)C(c3ccccc3)O2)cc1 (configuration not stated)	%	-12

All values here come from PubChem BioAssay (NCI).
